Target: Platelet-derived growth factor receptor beta (Homo sapiens);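 note: reported value is the mean percent inhibition of the kinase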
Conditions: at 0.1 µM
Note: every record was labeled by where its inhibition sits among group 1: < 3%; group 2: ≥ 3% and < 7%; group 3: ≥ 7%

Reference set, count: 5
CC1=C(C(=O)Nc2ccc3[nH]ncc3c2)C(c2ccc(Cl)c(Cl)c2)CC(=O)N1 (stereo not given) : group 1
O=C1Nc2ccc(C(=O)c3ccco3)cc2C1=Cc1cc(Cl)c(O)c(Cl)c1 : group 3
N#Cc1c(NC(=O)c2cccc3ccccc23)sc2c1CCCC2 : group 2
Cc1ccc(C(=O)NC2CCCCC2)cc1-c1ccc(C(=O)NCC2CC2)cc1 : group 2
CCn1c(-c2nonc2N)nc2cncc(C(=O)N3CCNCC3)c21 : group 1

Given `COc1ccccc1Nc1ncc(-c2ccccc2)o1` , name the class its inhibition places it in.
group 3

###

Can you tell me inhibition for the items I'm about to list?
Molecular target: Leukocyte tyrosine kinase receptor (Homo sapiens)
Details: at 0.1 µM
Description: GSK_PKIS: LTK mean inhibition at 0.1 uM [Nanosyn]
Numbers only, in %.

Below, 2 compounds whose answers are already recorded.
COc1ccccc1Nc1ncc(-c2ccccc2)o1 : 3.5
CC(C)=Cc1cccc2c1/C(=N/Nc1ccc(S(N)(=O)=O)cc1)C(=O)N2 : 1.87

From here, focus on the item given below.
Lab note: Leukocyte tyrosine kinase receptor (Homo sapiens) assay, enter inhibition for `O=C1Nc2ccc(C(=O)c3ccco3)cc2C1=Cc1cc(Cl)c(O)c(Cl)c1` here
9.03

###

Molecular target: Tyrosine-protein kinase ABL2 (Homo sapiens) (UniProt P42684);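 note: values are mean percent inhibition of ARG (ABL2), measured within the GSK PKIS set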
Sequence (P42684 whole entry): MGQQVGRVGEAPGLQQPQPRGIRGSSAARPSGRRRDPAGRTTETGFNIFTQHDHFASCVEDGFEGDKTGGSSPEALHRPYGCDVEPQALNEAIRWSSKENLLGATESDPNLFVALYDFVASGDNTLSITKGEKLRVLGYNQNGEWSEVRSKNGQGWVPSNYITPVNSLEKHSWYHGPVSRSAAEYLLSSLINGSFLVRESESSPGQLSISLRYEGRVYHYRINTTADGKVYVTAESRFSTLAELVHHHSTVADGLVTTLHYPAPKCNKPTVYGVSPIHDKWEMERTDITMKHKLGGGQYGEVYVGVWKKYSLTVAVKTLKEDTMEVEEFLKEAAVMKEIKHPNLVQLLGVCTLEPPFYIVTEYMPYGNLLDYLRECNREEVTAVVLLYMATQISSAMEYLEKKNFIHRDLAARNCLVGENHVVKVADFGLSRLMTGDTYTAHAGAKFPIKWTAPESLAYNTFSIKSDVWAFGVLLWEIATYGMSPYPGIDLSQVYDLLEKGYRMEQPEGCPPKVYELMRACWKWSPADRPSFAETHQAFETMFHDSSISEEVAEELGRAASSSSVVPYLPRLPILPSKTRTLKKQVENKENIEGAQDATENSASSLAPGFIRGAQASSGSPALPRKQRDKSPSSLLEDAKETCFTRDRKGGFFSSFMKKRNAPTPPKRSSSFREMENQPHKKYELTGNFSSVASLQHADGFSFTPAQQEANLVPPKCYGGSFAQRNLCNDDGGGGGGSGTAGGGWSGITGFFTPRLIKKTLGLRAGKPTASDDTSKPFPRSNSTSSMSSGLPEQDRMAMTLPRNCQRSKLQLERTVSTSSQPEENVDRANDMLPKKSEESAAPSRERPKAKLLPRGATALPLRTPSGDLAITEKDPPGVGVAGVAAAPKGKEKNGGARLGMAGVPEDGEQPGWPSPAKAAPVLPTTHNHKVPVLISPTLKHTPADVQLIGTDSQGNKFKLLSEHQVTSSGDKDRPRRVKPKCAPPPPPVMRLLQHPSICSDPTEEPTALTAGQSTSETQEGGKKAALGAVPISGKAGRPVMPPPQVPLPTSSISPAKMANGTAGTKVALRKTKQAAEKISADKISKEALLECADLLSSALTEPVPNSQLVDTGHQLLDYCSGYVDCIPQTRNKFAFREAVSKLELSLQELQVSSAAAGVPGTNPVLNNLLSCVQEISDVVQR
Settings: at 0.1 µM
Outcome label depends on inhibition relative to 2%: at/above gives true (1), below gives false (0).

Reference set, count: 4
CS(=O)(=O)CCNCc1ccc(-c2ccc3ncnc(Nc4ccc(OCc5cccc(F)c5)c(C(F)(F)F)c4)c3c2)o1 : true (1)
c1cnn2ncc(-c3ccnc(Nc4ccc5c(c4)OCCO5)n3)c2c1 : true (1)
Fc1cccc(COc2ccc(Nc3ncnc4sc(-c5cccs5)cc34)cc2Cl)c1 : false (0)
CCn1c(-c2nonc2N)nc2cnc(Oc3cccc(NC(=O)c4ccc(OCCN5CCOCC5)cc4)c3)cc21 : true (1)

Consider the record given below.
Is reported inhibition greater than or equal to 2% here: `COc1cc2ncn(-c3cc(OCc4ccccc4Cl)c(C(N)=O)s3)c2cc1OC`
false (0)

###

Can you tell me inhibition for the items I'm about to list?
System: Platelet-derived growth factor receptor alpha (Homo sapiens), P16234 [D842V]
Sequence (P16234 whole entry D842V): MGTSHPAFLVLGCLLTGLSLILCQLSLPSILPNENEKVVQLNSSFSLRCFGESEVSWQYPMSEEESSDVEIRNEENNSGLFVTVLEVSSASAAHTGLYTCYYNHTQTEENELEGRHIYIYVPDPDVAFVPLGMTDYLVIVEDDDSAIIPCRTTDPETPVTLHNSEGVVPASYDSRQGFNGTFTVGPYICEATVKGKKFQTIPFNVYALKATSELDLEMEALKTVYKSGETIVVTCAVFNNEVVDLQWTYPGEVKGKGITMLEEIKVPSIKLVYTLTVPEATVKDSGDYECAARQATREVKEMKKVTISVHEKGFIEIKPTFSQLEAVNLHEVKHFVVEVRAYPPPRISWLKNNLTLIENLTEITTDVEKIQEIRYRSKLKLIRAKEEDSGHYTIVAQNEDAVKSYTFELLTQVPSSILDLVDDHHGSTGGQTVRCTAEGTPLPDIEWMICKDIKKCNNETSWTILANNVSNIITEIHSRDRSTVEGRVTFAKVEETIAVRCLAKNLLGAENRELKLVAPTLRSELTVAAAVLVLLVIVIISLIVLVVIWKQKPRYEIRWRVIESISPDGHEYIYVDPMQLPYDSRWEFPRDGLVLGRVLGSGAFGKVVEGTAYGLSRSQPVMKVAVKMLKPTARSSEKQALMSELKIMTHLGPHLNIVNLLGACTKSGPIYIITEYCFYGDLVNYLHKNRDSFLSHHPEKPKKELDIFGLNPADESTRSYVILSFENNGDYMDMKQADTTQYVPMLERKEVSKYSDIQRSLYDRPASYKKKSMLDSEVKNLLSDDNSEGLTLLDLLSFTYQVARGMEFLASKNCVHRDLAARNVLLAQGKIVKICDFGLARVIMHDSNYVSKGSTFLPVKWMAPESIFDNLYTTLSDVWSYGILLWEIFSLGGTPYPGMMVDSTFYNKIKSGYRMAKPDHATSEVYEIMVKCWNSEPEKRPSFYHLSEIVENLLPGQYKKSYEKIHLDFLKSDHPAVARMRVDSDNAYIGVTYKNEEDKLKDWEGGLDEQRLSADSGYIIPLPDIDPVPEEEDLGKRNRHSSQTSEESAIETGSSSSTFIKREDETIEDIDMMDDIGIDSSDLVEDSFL
Settings: at 0.1 µM
One number for each entry, in %.

Below, 2 molecules whose answers are already recorded.
Cn1cc(C=C2C(=O)Nc3cccnc32)c2ccccc21 : 9.02
COC(=O)Nc1nc2cc(Oc3cccc(NC(=O)Nc4cc(C(F)(F)F)ccc4F)c3)ccc2[nH]1 : 2.6

From here, focus on the item given below.
Lab note: Platelet-derived growth factor receptor alpha (Homo sapiens), P16234 [D842V] assay, enter inhibition for `NS(=O)(=O)c1cccc(-c2ccc3c(NC(=O)C4CC4)n[nH]c3c2)c1` here
1.86

###

Tested on: Platelet-derived growth factor receptor alpha (Homo sapiens), P16234 [D842V]
Settings: at 0.1 µM
Can you tell me inhibition for the items I'm about to list?

Below, 2 compounds whose answers are already recorded.
COc1cc2ncn(-c3cc(O[C@H](C)c4ccccc4Cl)c(C(N)=O)s3)c2cc1OC : 42.1%
Cc1ccc(C(=O)NC2CCCCC2)cc1-c1ccc(C(=O)NCC2CC2)cc1 : 2.47%

// each compound listed below needs its inhibition
1. Nc1nc(-c2ccccn2)c(-c2ccc3ncccc3n2)s1
2. Cc1cccc(-c2n[nH]cc2-c2ccc3ncccc3n2)n1
3. CCCN1CCC=C(c2ccc(Nc3nc(Nc4ccccc4C(N)=O)c4cc[nH]c4n3)c(C)c2)C1
4. O=C1NC(=O)C(c2cccc(Cl)c2)=C1Nc1ccc(O)c(Cl)c1

1: 1.02%; 2: 18.8%; 3: 2.55%; 4: 4.44%

// each compound listed below needs its inhibition
1. Cc1cc(O)cc(C)c1/C=C/c1cncc(-c2nn[nH]n2)c1
2. CCN1CCC(CC(=O)Nc2n[nH]c3nc(-c4cccs4)c(Br)cc23)CC1
3. CC1=C(C(=O)Nc2ccc3[nH]ncc3c2)C(c2ccc3ccccc3c2)CC(=O)N1 (stereo not drawn)
4. CCn1c(-c2nonc2N)nc2cncc(C(=O)N3CCNCC3)c21
5. CCn1c(-c2nonc2N)nc2cncc(C(=O)N3CC[C@H](N)C3)c21
6. O=C1NC(=O)C(N2CCc3ccccc32)=C1c1ccc(Cl)cc1
7. CN1CCC(C(=O)Nc2n[nH]c3nnc(-c4ccccc4)cc23)CC1
8. NS(=O)(=O)c1ccc(N/N=C2\C(=O)Nc3ccc(C(=O)NCCc4c[nH]cn4)cc32)cc1

["2.87%", "1.12%", "2.86%", "1.69%", "4.02%", "3.39%", "3.37%", "15.9%"]

// each compound listed below needs its inhibition
1. COc1ccc(COc2ccc(Cc3cnc(N)nc3N)cc2OC)cc1
2. COC(=O)Nc1nc2cc(Oc3ccc(NC(=O)Nc4cccc(C(=O)O)c4)cc3)ccc2[nH]1

1: 0.95%; 2: 0.99%

// each compound listed below needs its inhibition
1. COc1ccccc1Nc1ncc(-c2ccccc2)o1
2. NC(=O)c1cccc(Nc2nccc(Nc3cccc4[nH]ncc34)n2)c1

4.24%
13.2%

###

Test system: Tyrosine-protein kinase ABL1 (Homo sapiens), P00519 [Y253F]
Details: at 0.1 µM
recorded_endpoint: inhibition (%)
One number for each entry, in %.

Below, 3 compounds whose answers are already recorded.
COc1ccc(COc2ccc(Cc3cnc(N)nc3N)cc2OC)cc1 : 3.15
COc1cc2ncn(-c3cc(O[C@@H](C)c4ccccc4Cl)c(C(N)=O)s3)c2cc1OC : 6.04
NC(=O)c1ccc(-c2nc(-c3ccccn3)c(-c3ccc4c(c3)OCO4)[nH]2)cc1 : 1.74

// each compound listed below needs its inhibition
1. CCn1c(-c2nonc2N)nc2c(N3CCCC3)nccc21
2. CS(=O)(=O)CCNCc1nc(-c2ccc3ncnc(Nc4ccc(F)c(Cl)c4)c3c2)cs1

-1.15
1.82

###

Biological target: Ribosomal protein S6 kinase alpha-2 (Homo sapiens) (UniProt Q15349);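 note: reported value is the mean percent inhibition of RSK3, from the GSK PKIS screening panel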
Sequence (Q15349 whole entry): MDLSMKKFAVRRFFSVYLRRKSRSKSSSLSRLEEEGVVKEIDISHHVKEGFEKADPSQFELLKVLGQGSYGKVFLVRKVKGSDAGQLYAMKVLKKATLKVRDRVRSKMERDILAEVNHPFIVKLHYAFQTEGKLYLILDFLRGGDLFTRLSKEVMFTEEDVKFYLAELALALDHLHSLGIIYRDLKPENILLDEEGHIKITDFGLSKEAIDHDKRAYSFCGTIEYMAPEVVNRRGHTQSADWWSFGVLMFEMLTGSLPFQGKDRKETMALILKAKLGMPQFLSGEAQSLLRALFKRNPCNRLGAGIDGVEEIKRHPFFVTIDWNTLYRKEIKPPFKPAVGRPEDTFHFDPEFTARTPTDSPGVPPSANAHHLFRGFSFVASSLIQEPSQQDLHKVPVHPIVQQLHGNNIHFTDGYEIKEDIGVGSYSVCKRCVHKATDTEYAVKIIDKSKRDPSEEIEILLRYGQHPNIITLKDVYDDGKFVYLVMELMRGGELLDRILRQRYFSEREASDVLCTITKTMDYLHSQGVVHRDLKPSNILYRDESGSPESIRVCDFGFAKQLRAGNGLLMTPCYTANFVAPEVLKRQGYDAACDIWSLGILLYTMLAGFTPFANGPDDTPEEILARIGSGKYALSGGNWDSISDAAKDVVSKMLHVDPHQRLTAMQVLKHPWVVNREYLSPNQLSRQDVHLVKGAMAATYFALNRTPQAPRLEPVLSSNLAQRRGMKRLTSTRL
Conditions: at 0.1 µM
Can you tell me inhibition for the items I'm about to list?
Answers are plain numbers, in %.

// each molecule listed below needs its inhibition
1. CCN1CCC(CC(=O)Nc2n[nH]c3nc(-c4cccs4)c(Br)cc23)CC1
2. CS(=O)(=O)CCNCc1nc(-c2ccc3ncnc(Nc4ccc(F)c(Cl)c4)c3c2)cs1
3. Cc1cc(O)cc(C)c1/C=C/c1cncc(-c2nn[nH]n2)c1

-1.79
-0.57
3.53

// each molecule listed below needs its inhibition
1. COC(=O)Nc1nc2cc(Oc3cccc(NC(=O)Nc4cc(C(F)(F)F)ccc4F)c3)ccc2[nH]1
2. Cc1ccc(NC(=O)c2ccnc(N3CCCC3)c2)cc1-c1ccc(C(=O)NCC2CC2)cc1

1: -0.64; 2: 3.89

// each molecule listed below needs its inhibition
1. CCn1c(-c2nonc2N)nc2c(C#CC(C)(C)O)nc(CN3CCCC3)cc21
2. Cn1cc(C=C2C(=O)Nc3cccnc32)c2ccccc21
3. Nc1nc(-c2ccc3c(c2)C(=Cc2cc(Br)c(O)c(Br)c2)C(=O)N3)cs1

1: -0.08; 2: 1.73; 3: -0.77

// each molecule listed below needs its inhibition
1. O=C1NC(=O)C(N2CCc3ccccc32)=C1c1ccc(Cl)cc1
2. O=C1Nc2ccc(C(=O)c3ccco3)cc2C1=Cc1cc(Cl)c(O)c(Cl)c1
3. Fc1cccc(COc2ccc(Nc3ncnc4sc(-c5cccs5)cc34)cc2Cl)c1

1: 2.52; 2: 1.45; 3: 0.38

###

Target: Non-receptor tyrosine-protein kinase TYK2 (Homo sapiens) (UniProt P29597);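 note: values are mean percent inhibition of TYK2 kinase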
Sequence (P29597 whole entry): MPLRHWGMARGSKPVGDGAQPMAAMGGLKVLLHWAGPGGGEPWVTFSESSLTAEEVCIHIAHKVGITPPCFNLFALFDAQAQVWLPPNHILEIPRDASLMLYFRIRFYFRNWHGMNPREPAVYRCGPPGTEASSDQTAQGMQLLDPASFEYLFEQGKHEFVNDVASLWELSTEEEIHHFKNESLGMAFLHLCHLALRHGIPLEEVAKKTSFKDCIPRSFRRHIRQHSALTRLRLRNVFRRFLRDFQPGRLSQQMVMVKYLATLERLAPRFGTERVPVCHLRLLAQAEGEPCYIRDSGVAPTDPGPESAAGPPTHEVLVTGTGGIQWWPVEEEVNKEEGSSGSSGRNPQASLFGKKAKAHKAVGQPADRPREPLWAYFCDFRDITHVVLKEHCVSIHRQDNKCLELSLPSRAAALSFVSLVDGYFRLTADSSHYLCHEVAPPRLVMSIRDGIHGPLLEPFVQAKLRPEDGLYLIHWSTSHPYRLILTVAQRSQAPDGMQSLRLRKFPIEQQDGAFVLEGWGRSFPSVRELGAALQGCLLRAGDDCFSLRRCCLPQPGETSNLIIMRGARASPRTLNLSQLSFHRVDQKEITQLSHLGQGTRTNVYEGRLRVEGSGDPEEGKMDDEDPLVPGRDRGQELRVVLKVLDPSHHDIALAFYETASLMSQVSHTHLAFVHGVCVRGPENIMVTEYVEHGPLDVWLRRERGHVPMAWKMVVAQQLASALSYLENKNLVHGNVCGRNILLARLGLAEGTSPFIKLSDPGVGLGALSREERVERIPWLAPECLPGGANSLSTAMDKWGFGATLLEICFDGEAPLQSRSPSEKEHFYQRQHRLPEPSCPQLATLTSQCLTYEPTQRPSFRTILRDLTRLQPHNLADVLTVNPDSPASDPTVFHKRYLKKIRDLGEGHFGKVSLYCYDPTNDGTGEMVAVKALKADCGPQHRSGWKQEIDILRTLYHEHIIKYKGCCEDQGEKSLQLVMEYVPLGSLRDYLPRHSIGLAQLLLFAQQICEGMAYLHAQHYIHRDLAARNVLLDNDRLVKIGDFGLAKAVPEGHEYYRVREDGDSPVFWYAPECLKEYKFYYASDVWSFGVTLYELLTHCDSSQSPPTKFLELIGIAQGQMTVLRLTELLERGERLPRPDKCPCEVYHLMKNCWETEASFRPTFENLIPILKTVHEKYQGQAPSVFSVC
Conditions: at 1 µM
recorded_endpoint: inhibition (%)
Numbers only, in %.

Below, 8 molecules whose answers are already recorded.
CC1=C(C(=O)Nc2ccc3[nH]ncc3c2)C(c2ccc3ccccc3c2)CC(=O)N1 (stereo not drawn) : 4.98
CC1=C(C(=O)Nc2ccc3[nH]ncc3c2)C(c2ccc(F)cc2)NC(=O)N1 (stereo not drawn) : 26.3
Nc1ncnc2occ(-c3ccc(NC(=O)Nc4cc(C(F)(F)F)cc(C(F)(F)F)c4)cc3)c12 : -5.22
CCN1CCC(CC(=O)Nc2n[nH]c3nc(-c4cccs4)c(Br)cc23)CC1 : 2.37
COc1cc2c(cc1Nc1nc(N3CCc4ccccc43)c3cc[nH]c3n1)N(C(=O)CN(C)C)CC2 : -2.82
CCn1c(-c2nonc2N)nc2c(C#CC(C)(C)O)nc(OC[C@@H](N)c3ccccc3)cc21 : 0.35
COc1cc2ncn(-c3cc(OCc4ccccc4Cl)c(C(N)=O)s3)c2cc1OC : 2.41
COc1ccc(-c2coc3ncnc(N)c23)cc1 : -3.97

// each molecule listed below needs its inhibition
1. Cc1ccc(NC(=O)c2ccnc(N3CCCC3)c2)cc1-c1ccc(C(=O)NCC2CC2)cc1
2. CS(=O)(=O)CCNCc1ccc(-c2ccc3ncnc(Nc4ccc(OCc5cccc(F)c5)c(C(F)(F)F)c4)c3c2)o1
3. CS(=O)(=O)CCNCc1ccc(-c2ccc3ncnc(Nc4ccc(OCc5ccccc5)c(Cl)c4)c3c2)o1
4. CC1=C(C(=O)Nc2ccc3[nH]ncc3c2)C(c2ccc(Cl)c(Cl)c2)CC(=O)N1 (stereo not drawn)
5. O=C1Nc2ccc(C(=O)c3ccco3)cc2C1=Cc1cc(Cl)c(O)c(Cl)c1

1: -2.58; 2: -3.56; 3: 1.7; 4: 3.29; 5: 26.4
